Provide the recorded GI50 for the entries that follow.
System: SF-539
Test: NCI tumour cell line growth inhibition, 48 h
Calls of active or inactive are those of the source. Cut-off read from the data, not from the text of the source: active = GI50 up to about 1.1 µM and inactive = higher.

The reported value for CC1NC(=O)C2Cc3ccc(O)c(c3)Oc3ccc(cc3)C(O)C(C(=O)N2C)N(C)C(=O)C(C)NC(=O)C(Cc2ccc(O)cc2)N(C)C(=O)C(C)NC1=O (centres undefined) in terms of GI50 is 6.71 µM (inactive)

The reported value for `Cc1cccc(NC(=O)c2c(N)[n+]([O-])c3ccccc3[n+]2[O-])c1` in terms of GI50 is 5.05 µM (inactive)

The reported value for `COC(=O)c1c2cccccc-2c(Cc2c3cccccc-3c(C(=O)OC)c2O)c1O` in terms of GI50 is > 100 µM (inactive)

The reported value for `COc1ccc(/C=N/n2cnc3c(sc(=S)n3-c3ccccc3)c2=O)cc1` in terms of GI50 is 12.8 µM (inactive)
